# experimental-system: Rac GTPase-activating protein 1 (Homo sapiens) (UniProt Q9H0H5)
# Sequence (Q9H0H5 whole entry, looked up): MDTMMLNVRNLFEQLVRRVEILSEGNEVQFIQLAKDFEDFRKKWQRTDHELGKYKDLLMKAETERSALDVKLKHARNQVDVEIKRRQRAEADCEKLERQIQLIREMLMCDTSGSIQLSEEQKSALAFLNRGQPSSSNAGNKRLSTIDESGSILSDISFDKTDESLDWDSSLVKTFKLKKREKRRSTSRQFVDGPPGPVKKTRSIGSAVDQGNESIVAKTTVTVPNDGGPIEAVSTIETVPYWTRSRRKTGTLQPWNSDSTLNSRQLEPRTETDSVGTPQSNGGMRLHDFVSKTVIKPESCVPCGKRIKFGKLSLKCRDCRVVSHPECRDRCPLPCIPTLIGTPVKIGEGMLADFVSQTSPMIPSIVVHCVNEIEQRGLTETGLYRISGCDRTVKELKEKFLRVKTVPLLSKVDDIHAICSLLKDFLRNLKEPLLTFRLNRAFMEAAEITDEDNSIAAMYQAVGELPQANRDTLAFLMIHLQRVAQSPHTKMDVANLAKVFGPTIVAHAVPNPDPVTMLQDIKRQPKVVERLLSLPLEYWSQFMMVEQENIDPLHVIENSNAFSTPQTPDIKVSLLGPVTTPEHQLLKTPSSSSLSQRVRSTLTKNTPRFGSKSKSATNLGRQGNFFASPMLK
# assay-protocol: blockers of MgcRacGAP-driven Rac1 GTP hydrolysis – biochemical, ADP Hunter fluorescence, primary and confirmatory, confirmation (AID 624330);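 also: fluorescence reports GDP produced by GAP-driven GTP hydrolysis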
# study-conditions: MgcRacGAP-stimulated Rac1 GTP hydrolysis, at 30 µM, stronger effect = higher value, GST-tagged Rac1 F28L mutant substrate
In all, about 340,000 compounds went through this assay and about 2,100 (0.62%) were called active. Not all results are given here. Potency and affinity values are given separately.
property-label: inhibition (%)
Numbers only; they are read as %.

1) COc1cc(/C=C2/C(=O)CNC2=O)ccc1O: 28.6
2) Cc1cc(NS(=O)(=O)c2ccc(Nc3nc(-c4ccc(C)c(C)c4)cs3)cc2)no1: 12.2
3) CCOC(=O)C(CC)Sc1nc2c(c(=O)[nH]c(=O)n2C)n1C/C=C(/C)Cl (centres undefined): 13.4
4) COc1ccc(OCCOCCN2CCOCC2)cc1: 12.8
5) COc1ccc(/C=C2\CN(Cc3ccccc3)C/C(=C\c3ccc(OC)c(O)c3)C2=O)cc1O: 7.6

Need inhibition of `CC(/C=N/n1c(-c2ccccc2)n[nH]c1=S)=C\c1ccco1` , thanks.
24.1

Need inhibition of `CCOc1cccc(OCCOCCN2CCCC2)c1` , thanks.
25

Need inhibition of CC(NC(=O)c1cccc(C(F)(F)F)c1)C1CCCO1 (centres undefined) , thanks.
6.29

Need inhibition of `S=C(Cc1ccccc1)NCCc1ccccc1` , thanks.
9.14

----------
List of inhibition values.
# experimental-system: Rac GTPase-activating protein 1 (Homo sapiens) (UniProt Q9H0H5)
# assay-protocol: blockers of MgcRacGAP-driven Rac1 GTP hydrolysis – biochemical, ADP Hunter fluorescence, primary and confirmatory, confirmation (AID 624330);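 also: fluorescence reports GDP produced by GAP-driven GTP hydrolysis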
# study-conditions: MgcRacGAP-stimulated Rac1 GTP hydrolysis, at 30 µM, stronger effect = higher value, GST-tagged Rac1 F28L mutant substrate
Screen size: about 340,000 compounds; about 2,100 (0.62%) were called active. These entries were drawn from the full list. Measured potencies and affinities stand elsewhere.
Numbers only; they are read as %.

Guide cases for inhibition, answers given:
1) COC(=O)C(CC(C)C)NC(=O)c1cccs1 (stereo not drawn): 0.95
2) COc1cc(CC(=O)Nc2ccc(N3CCOCC3)cc2)cc(OC)c1OC: 4.24
3) Cc1ccc(S(=O)(=O)N2CCN(C(=O)Cn3nc(C)c([N+](=O)[O-])c3C)CC2)cc1: 6.68
4) CCOc1c(Cl)cc(CNc2ccc(N3CCCC3)cc2)cc1OC: 36.9
5) COc1cc(CNc2ccc(N3CCCC3)cc2)cc(Cl)c1OC: 1.89

Find the measured inhibition: item `CCc1cc(C(=O)N2CCN(S(=O)(=O)c3ccc(Cl)cc3)CC2)sc1C` , target or system Rac GTPase-activating protein 1 (Homo sapiens) (UniProt Q9H0H5).
1.55

Find the measured inhibition: item `CCN1CNC(=S)N(c2cccc(C)c2C)C1` , target or system Rac GTPase-activating protein 1 (Homo sapiens) (UniProt Q9H0H5).
7.09

----------
# experimental-system: Rac GTPase-activating protein 1 (Homo sapiens)
# assay-protocol: blockers of MgcRacGAP-driven Rac1 GTP hydrolysis – biochemical, ADP Hunter fluorescence, primary and confirmatory, confirmation (AID 624330);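 also: fluorescence reports GDP produced by GAP-driven GTP hydrolysis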
# study-conditions: MgcRacGAP-stimulated Rac1 GTP hydrolysis, at 30 µM, stronger effect = higher value, GST-tagged Rac1 F28L mutant substrate
About 2,100 (0.62%) of roughly 340,000 compounds were called active. The list is a sample of the results. Results with a measured potency or affinity are listed apart.
property-label: inhibition (%)
Numbers only; they are read as %.

Guide cases for inhibition, answers given:
1) COc1ccc(-c2nn(-c3ccccc3)cc2/C=N/NC(=S)NC(C)C)cc1OC: 7.12
2) Cc1c(NC(=O)c2ccc(S(=O)(=O)N3CC(C)OC(C)C3)cc2)c(=O)n(-c2ccccc2)n1C (stereo unspecified): 4.26
3) COc1ccc(CCC(=O)NC2CCCc3ccccc32)cc1OC (stereo unspecified): 5.44
4) COc1ccc(/C=N/Nc2ncnc(Cl)c2N)cc1OC: 9.22
5) COc1cccc(/C=N/Nc2ncnc(Cl)c2N)c1O: 7.43
6) Nc1c(Cl)ncnc1NCCO: 12.3
7) NC(=O)c1ccsc1NC(=O)COC(=O)c1cc(Cl)ccc1O: 0.77
8) CN(C(=O)c1cccc(NC(=O)Cc2ccc(NC(=O)C3CCN(C(=O)C4CC4)CC3)cc2)c1)C1CCC1: 6.53
9) Nc1c(Cl)ncnc1N/N=C/c1cccnc1: -0.02
10) Clc1ccc(/C=N/Nc2ncnc3nc[nH]c23)cc1: 19.8

Need inhibition of `Cc1ccc(NC(=O)c2cc(S(=O)(=O)N3CCOCC3)ccc2Cl)cc1S(=O)(=O)N1CCOCC1` , thanks.
9.95
